Every entry's value here was drawn from patent US20210238197A1.

Test system: multiple species and strains
Test: microbe, parasite or virus in culture
Conditions: Escherichia coli, ATCC25922, read-out: MIC S11, E. coli ATCC 25922
# Lookup of reported MIC keyed by entry
Numbers only here, please. The scale is µg/mL.

Below, 6 molecules whose answers are already recorded.
>>> observedmeasurement("CNc1cc(F)c(F)c2c1[nH]c1ncc(-c3ccc4ccc(C(=O)O)c(=O)n4c3)c(N(C)C)c12 [Example 1.01]")
0.169
>>> observedmeasurement("CNc1cc(F)c(F)c2c1[nH]c1ncc(-c3ccc4ccc(C(=O)O)c(=O)n4c3)c(N3CC[C@]4(C[C@H]4N)C3)c12 [Example 4.01C]")
0.222
>>> observedmeasurement("CNc1cc(F)c(F)c2c1[nH]c1ncc(-c3ccc4ccc(C(=O)O)c(=O)n4c3)c(N3CC[C@H]4CN(C)C[C@H]43)c12 [Example 1.04]")
0.048
>>> observedmeasurement("CNc1cc(F)c(C#N)c2c1[nH]c1ncc(-c3ccc4ccc(C(=O)O)c(=O)n4c3)c(N3CC[C@H]4CN(C)C[C@H]43)c12 [Example 1.14]")
0.04
>>> observedmeasurement("CNc1cc(F)c(F)c2c1[nH]c1ncc(-c3ccc4ccc(C(=O)O)c(=O)n4c3)c(N3CCC4CN(C)C[C@@H]43)c12 (stereo in doubt) [Example 1.03]")
0.193
>>> observedmeasurement("CNc1cc(F)c(F)c2c1[nH]c1ncc(-c3ccc4ccc(C(=O)O)c(=O)n4c3)c(N3CCC(C4(N)CC4)C3)c12 (stereo not shown) [Example 1.21]")
0.34

Next molecule, please.
What measured MIC goes with CNc1cc(F)c(Cl)c2c1[nH]c1ncc(-c3ccc4ccc(C(=O)O)c(=O)n4c3)c(N3CC[C@H]4CN(C)C[C@H]43)c12 [Example 1.07] ?
0.049
